# Protocol details: protein stability index of a GFP-peptide fusion (yeast GPS) (PSI 1-4); higher = more stable; sorted into four equal gates, so the index is relative within each strain
# Cond: ubr1∆
Quantity measured: protein stability index
Lab note: write the figure by itself, no unit.

What value of protein stability index has been reported for the following sequence? DNPDQGISDMCRLFFTE [YCS4] 3.04

// lookup protein stability index for GSPQMLANEERLSNEMH [RGR1] 2.93

What does the record list as protein stability index for STMGTPTVHNSTAAAPI [PGD1] ? 2.93

* * *

For each record, write down the corresponding protein stability index.
# Protocol details: protein stability index of a GFP-peptide fusion (yeast GPS) (PSI 1-4); higher = more stable; sorted into four equal gates, so the index is relative within each strain
# Cond: san1∆
Number, no unit, nothing else.

Request the reported protein stability index associated with ATQKESLEMVPKDTSAA [RGR1] 3.09

If you can, please state the reported protein stability index value of TKRVEKPQLKFKSPIDN [RRP6] . 3.02

Which protein stability index value belongs to QLSLDASKTNLRLTDVT [GAL11] ? 3.06

Which value of protein stability index has been reported for KIWSVKDGSNPRTLIGH [RPN14] in the records? 2.95

Form field: reported protein stability index of QPSDVKPTSHKQLQQPK [SIR4] 2.99

What does the record list as protein stability index for FSHLAGGKIINKLGNDP [BRR2] ? 2.91

Which measured protein stability index value corresponds to WPTTHKYPLGHFVRDLG [DIS3] ? 3.07

Requested read-out: protein stability index. Entry: NNVNEYSYTTIVLSDQT [YJL039C/NUP192] 3.09

So what does the record say about protein stability index for ANPAGASQPEPTTNEPA [YJL041W/NSP1] ? 2.92

Look up protein stability index: IRKIVRKDENQFSYVDS [AAR2] 3.03

For NEKEQLSFINPKTGKVE [SEC65] , what is its reported protein stability index? 2.98

So what does the record say about protein stability index for LLVDQKQLNSLRRSGQI [SMD1] ? 2.96

Which protein stability index value is on record for PAPINSLSRDFVMKTRR [SNU114] ? 2.97

Can you look up the measured protein stability index of LDDITDSNTTEILTSVD [SIR4] for me? 2.94
